- assayDetails: soluble fraction after stress (log2 fold change); higher = more stays soluble; pooled small domains, quantitative proteomics;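 further: 20 min heating vs room temperature control held 20 min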
- measurementContext: stress: 75 degC
The following sequences are shown together with reported soluble fraction (log2) values.
readoutKind: soluble fraction (log2)

1) HMTVVHRQVHLQPDQGAFRAALYSHKAVLSEQTDDQGAINLEIRLPESDFLRLLNSSGLKLQDLVP | -0.427
2) HMINRMGRLVEALSHMIANTKPGARLPSEPELARQLGVSRATLREAMRTFEAQGMIHRRQGAGTFVVH | -1.27
3) HMSFGWELYKGKEGIADTDLHPSGWIRIADKRVFAVSEGEFIEKGLEIIVLSVDGNRIVVRELK | -1.93
4) HMIENGILELKGKTGVAQTVLRPSGKVLIDDEIYDAVALTGYIEKADKVLVTKVEATQLYVEK | -0.0378
5) HMKRNLVSVLDHIVGIGPKRRQSLRTHFGSLEKIKEASVEELAAAPGMNRTSAEAVRHFFDAQQELRGK | 0.727
6) HMVPHQPRVWTNTAGKTITAAFVRFNAAGRKVSLKLEKGRQVELPLASLSGNDVDWIKEHVPEAMSNQE | -1.06
7) HMYRWSEEIFEKLRSDIMAALDLSREQNDEEIYRFIETEVEEYSQNNLLTLKEREQLEHLLFNSL | -1.44
8) HMETIGENIKTYRQKKGYTQEEVANRLHVTRQTISKWEKNYSIPDAEVLVKLADVLEVQTSQLLGV | -0.374
9) HMQILLASHAELAKGILSAVELIAGTQQNLKAYSAYTEAVDVHFKDQMLQDLNKMDPEDEVIL | 0.137
10) HMSQIILSARSGHAALRHRLGELGYTFADKEFDDIYERFLEVADQKKEVYDEDLESIVQERQRD | 0.00498
11) HMEFTKSPLDEIAGVGPARKRALLAAFGTAKAVSQAALADLEKTPGVNAATARLVYAHFHEK | -0.227
12) HMKILVTDDNIRIDKYLTTQTEYSRSTIQKMIESNNILVNNKPTKSNYILRNNDEITIDENFNEE | -0.00567
13) HMVNIEAEVGRRLRQLRARRGLSLRALADLSGLNVNTLSLIENSKTSPSVSTLQQLARSLQVPITTFFESD | -1.36
14) HMTQRRLQSELDSIPGVGAGTRTKLLRTLGSVDAVLRASEAELLAAGANRRQVASIQAHAAAVER | -0.0213
15) HMDTSKIDYSEFITMLDKGEVESVVLKSDTLTVTLKHGTGMAAQTKTVTLMEDLSELTKRLEKAGVKSFDK | 0.614
16) HMHEYSRIYQQQWWDNATGADAYHVIHSARSRAAQDPEAARALEYLEEQFRIRYGVRTEDFLGYLHD | -1.2
17) HMNGGPHYLRDVRTSLGLSQADLAKAVGTSANMIHYLESGERALTLKWIRRISEALNVSPMRLIN | -2.06
18) HMFPQVEVQLIYSYKSDRILNKMLKEFNVVILNQVFKDDILTSFHMNYSLVNQLITKIKSYPDISYKIIN | -1.82
19) HMKSQVVAYSDFVKAVNQKQINEVQIQGDKIRAINKAGEEITVTWLQNDQKLMDDLLDNNVKTIFLE | 0.0189
20) HMQTFGTMIAALRKEQGMTQLELAEKMGVTDKAVSKWERDLSFPDVNSLPKLAEIFHVSVDEL | -0.16
21) HMDPSWVPVFNNLRDAILSHQLLPGTRLAEDELSNIYGLGRTVIRSALGALTHEGLLTHIPNRGVHVAKP | -1.16
22) HMGSNRPLALGDVVRIEGSKTLGTILELNAKDAVVALGALKTTLPLSRIHHASSQESQRLKRQATQAPLR | -0.203
23) HMIDYIKYTVDGKTYELINNWDGTWSRELEAPLVAGRYDLLLEISQNGLVTYIDSSDPRYEFYLDVI | -3.02
24) HMQHQSGLKSGEFEAISQQLQALLKENPLSLQEIKDKMQVTENHLIKVVSYLVSEEIIRQENGYLK | -0.976
25) HMVKVEVKPNVLQWVIKRMDNFDRLKDQFPNIDKWINQESQPTLKQLEKLAKMTAVPLGYFFLPNPPEEK | -1.12
26) HMNPLDGTSVHPESYEAAEKLLKKQGFSLEDISGGKLTGLSLTIKDYARLAKELEIGEITLRDIVKELEK | -0.132
27) HMIKEGDLVFIWNPKKGDSFLIKVQPGQSQGTHFGQIKHSEIMEHNYGEGIRTPKGQVYYLLRPTLGEFTR | -1.4
28) HMEESTYQWNNFVRDFYASRVSAQYTNKLKVAAILWHHVKNTPQSKIYHDNLVSKYAEEINYFK | -2.8
